TESTED ON: dihydrofolate reductase (CauDHFR) (Candidozyma auris)
Construct: His-tag-removed CauDHFR
Sequence (A0A0L0P1H8 1-204): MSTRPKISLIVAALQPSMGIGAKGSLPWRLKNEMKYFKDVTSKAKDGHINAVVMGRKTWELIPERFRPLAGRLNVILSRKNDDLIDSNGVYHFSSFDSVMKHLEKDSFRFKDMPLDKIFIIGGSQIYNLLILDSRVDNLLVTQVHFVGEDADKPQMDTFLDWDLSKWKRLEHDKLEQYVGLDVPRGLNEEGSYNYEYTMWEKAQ
EXPERIMENT DESCRIPTION: ([…] Å); DSF shift +[…] °C; NADPH-consumption IC50
PROPERTY NAME: IC50
Lab note: write values as number then unit, every time.

Reported IC50 for CC1(C)N=C(N)N=C(N)N1c1ccc(Cl)cc1 : what is it? 401 µM
